Source listed as patent US20160114035A1.

- TARGET_UNDER_TEST: DRB1*0101
- ASSAY_PROTOCOL: binding to purified HLA
- DETAILS: chains peptide; modification not given
PROPERTY_MEASURED: pIC50
Remember, pIC50 is on a log scale: it is -log10 of the molar concentration.

Prompt line: Requested field: pIC50. Item: AKFVAAWTLKAAA [SEQ ID NO: 3]
Response line: 8.40
